# testSystem: Carboxy-terminal domain RNA polymerase II polypeptide A small phosphatase 1 (Homo sapiens, UniProt Q9GZU7)
# Sequence (Q9GZU7 whole entry, the tested form may be a part): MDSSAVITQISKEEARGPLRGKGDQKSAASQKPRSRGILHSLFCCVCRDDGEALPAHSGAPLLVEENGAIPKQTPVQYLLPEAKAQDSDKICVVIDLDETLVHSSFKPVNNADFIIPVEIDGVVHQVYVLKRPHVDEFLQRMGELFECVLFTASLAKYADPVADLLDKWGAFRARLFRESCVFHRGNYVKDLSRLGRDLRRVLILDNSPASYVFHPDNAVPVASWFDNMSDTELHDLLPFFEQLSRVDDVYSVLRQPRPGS
# assayDetails: inhibitors of CTDSP1, concentration-response testing, biochemical assay, absorbance-based, actives from ultra-high-throughput screening (AID 540297)
# Assay type: functional
The source made the active and inactive calls.
measuredParameter: IC50

Need IC50, item COc1ccc(/C=C/C(=O)OCC(=O)NCc2ccco2)cc1OC
14.5 µM (active)

Need IC50, item O=[N+]([O-])c1cccn2cc(-c3ccc(Br)cc3)nc12
9.74 µM (active)

Need IC50, item Cc1ccc(C(=O)O)cc1-c1ccc(/C=C2\SC(=O)N(CC(=O)Nc3ccccc3)C2=O)o1
2.75 µM (active)

Need IC50, item O=C(CCS(=O)(=O)c1ccc(Br)cc1)Nc1ccc(Br)cc1F
22 µM (active)

Need IC50, item COc1ccc(S(=O)(=O)N2CCN(C(=O)c3cc4c(s3)CCC4)CC2)cc1
1.61 µM (active)

Need IC50, item Cn1c(NN)nc2c1c(=O)n(Cc1ccccc1)c(=O)n2C
25.2 µM (active)

* * *

Would you kindly list IC50 for each of these compounds?
# testSystem: UniProt Q9GZV3
# Sequence (Q9GZV3 whole entry): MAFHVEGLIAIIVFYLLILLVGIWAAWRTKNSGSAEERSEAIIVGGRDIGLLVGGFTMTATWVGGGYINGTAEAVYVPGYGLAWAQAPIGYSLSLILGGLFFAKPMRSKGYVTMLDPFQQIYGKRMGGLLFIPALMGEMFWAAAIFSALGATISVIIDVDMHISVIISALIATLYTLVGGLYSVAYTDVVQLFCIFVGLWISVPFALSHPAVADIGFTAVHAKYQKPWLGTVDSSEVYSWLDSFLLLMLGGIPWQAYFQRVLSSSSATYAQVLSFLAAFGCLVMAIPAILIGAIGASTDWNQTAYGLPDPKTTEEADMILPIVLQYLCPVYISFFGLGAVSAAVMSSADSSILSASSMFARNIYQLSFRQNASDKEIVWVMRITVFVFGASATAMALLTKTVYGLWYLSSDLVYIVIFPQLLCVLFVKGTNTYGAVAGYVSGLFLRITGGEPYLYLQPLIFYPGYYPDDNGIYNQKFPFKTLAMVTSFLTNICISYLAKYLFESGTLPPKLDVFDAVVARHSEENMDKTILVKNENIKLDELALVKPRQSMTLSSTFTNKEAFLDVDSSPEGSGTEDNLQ
# assayDetails: CHT inhibitors, dose response, cell-based, 5-point CRC, membrane potential dye (AID 504840)
# Format: functional
Calls of active or inactive are those of the source.

Need IC50, item NCCCCCc1nnc(SCc2ccc(Cl)c(Cl)c2)o1
13.2 µM (active)

Need IC50, item Cc1ccc(C(C)C)c(OCC(=O)NS(=O)(=O)c2ccc(Cl)cc2)c1
11.8 µM (active)

Need IC50, item Cc1ccc2c(C)c(C(=O)N3CCC(N4CCC(C(=O)NC5CC5)CC4)CC3)oc2c1
14.5 µM (active)

Need IC50, item COc1ccc(C(=O)C[n+]2cccc(C)c2)cc1
2.43 µM (active)

Need IC50, item Cc1noc(C)c1COC(=O)c1cnc(Cl)c(Cl)c1
10 µM (active)

Need IC50, item O=[N+]([O-])c1ccc(O)c(CSc2nnnn2-c2ccccc2)c1
12 µM (active)

Need IC50, item N#C/C(=N\Nc1cccc(Cl)c1)C(=O)c1ccccc1
13.8 µM (active)

Need IC50, item Cc1cc(C)nc(N2N=C(CSc3ccc(Cl)cc3)CC2=O)n1
15.1 µM (active)

Need IC50, item NC(=S)N/N=C1/CCSc2ccc3ccccc3c21
6.48 µM (active)

* * *

Would you kindly list IC50 for each of these molecules?
# testSystem: Rac GTPase-activating protein 1 (Homo sapiens)
# Sequence (Q9H0H5 whole entry): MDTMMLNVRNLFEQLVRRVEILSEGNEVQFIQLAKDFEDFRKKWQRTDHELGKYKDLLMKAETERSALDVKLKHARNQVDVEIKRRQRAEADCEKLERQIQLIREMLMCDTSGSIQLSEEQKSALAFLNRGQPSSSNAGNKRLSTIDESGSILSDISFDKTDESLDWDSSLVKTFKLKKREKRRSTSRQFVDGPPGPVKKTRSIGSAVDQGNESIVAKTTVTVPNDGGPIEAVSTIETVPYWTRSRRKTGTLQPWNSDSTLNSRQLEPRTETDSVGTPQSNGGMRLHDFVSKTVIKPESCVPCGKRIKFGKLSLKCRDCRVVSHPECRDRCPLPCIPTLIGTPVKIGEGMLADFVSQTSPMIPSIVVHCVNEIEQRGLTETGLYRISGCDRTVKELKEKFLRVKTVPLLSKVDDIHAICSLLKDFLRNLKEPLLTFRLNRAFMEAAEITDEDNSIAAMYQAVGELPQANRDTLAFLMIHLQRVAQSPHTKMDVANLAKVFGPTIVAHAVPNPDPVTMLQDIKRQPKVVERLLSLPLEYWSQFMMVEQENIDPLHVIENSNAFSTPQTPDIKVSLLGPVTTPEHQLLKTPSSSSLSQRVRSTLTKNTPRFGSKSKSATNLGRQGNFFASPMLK
# assayDetails: MgcRacGAP GTPase-activating activity inhibitors, confirmation, biochemical, ADP Hunter fluorescence, primary and confirmatory (AID 624330)
# Assay type: functional
The source made the active and inactive calls.

Need IC50, item COc1ccc(Cc2nnc(NC(=O)Cc3cccs3)s2)cc1
52 µM (active)

Need IC50, item COC(=O)c1ccc(NCc2c(O)ccc(O)c2Br)cc1Cl
57.6 µM (active)

Need IC50, item Cc1ccc(C(C2=C(O)CC(C)(C)CC2=O)C2C(=O)CC(C)(C)CC2=O)s1 (configuration not stated)
62.9 µM (active)

Need IC50, item O=C1C(Br)=C(N2CCN(CCOCCO)CC2)C(=O)c2c(O)ccc(O)c21
34.8 µM (active)

Need IC50, item Oc1cc(O)cc(-c2cc3ccc(O)cc3o2)c1
23 µM (active)

Need IC50, item CN(C)c1ccc(/C=C2/NC(=O)NC2=O)cc1
51.2 µM (active)

Need IC50, item COc1cc(C=c2c3ccccc3n3c2cc(-c2ccccc2)[n+]3C)cc(OC)c1OC
323 µM (active)
